A collection of molecules and their measured Ki
- Target Or System: human D3 dopamine receptor (Homo sapiens)
- Construct: expressed in transfected cells; host or cells: HEK-293 EBNA cells (transient transfection; membrane preparation)
- Sequence (P35462 whole entry): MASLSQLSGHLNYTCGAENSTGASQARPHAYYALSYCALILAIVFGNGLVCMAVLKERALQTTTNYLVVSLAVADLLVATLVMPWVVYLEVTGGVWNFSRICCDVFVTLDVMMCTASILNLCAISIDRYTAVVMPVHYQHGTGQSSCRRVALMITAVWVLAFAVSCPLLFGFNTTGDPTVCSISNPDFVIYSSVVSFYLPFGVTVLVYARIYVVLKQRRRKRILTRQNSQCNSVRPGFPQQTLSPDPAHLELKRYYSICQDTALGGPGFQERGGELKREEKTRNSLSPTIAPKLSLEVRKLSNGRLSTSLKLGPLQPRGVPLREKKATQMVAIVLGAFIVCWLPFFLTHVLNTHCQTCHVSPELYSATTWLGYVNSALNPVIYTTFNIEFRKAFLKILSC
- Protocol Notes: Radioligand binding to cloned human D3 receptor ([3H]-spiperone)
- Test Settings: first value of D3/5HT2A/D2; membranes of transfected HEK-293 EBNA cells, 0.5 nM [3H]-spiperone, 1 h at RT
Quantity: Ki (nM)

[[record]]
substance_smiles = "O=C(Nc1ccc(Cl)cc1)N[C@H]1CC[C@H](CCN2CCC(Oc3ccc(F)cc3)CC2)CC1"
quantity = "Ki"
result_value = 14

[[record]]
substance_smiles = "COCCC(=O)N[C@H]1CC[C@H](CCN2CCC(Oc3ccc(F)cc3Cl)CC2)CC1"
quantity = "Ki"
result_value = 14

[[record]]
substance_smiles = "COCCC(=O)N[C@H]1CC[C@H](CCN2CCC(Oc3ccc(F)cc3)CC2)CC1"
quantity = "Ki"
result_value = 48

[[record]]
substance_smiles = "O=C(N[C@H]1CC[C@H](CCN2CCC(Oc3cccc(Cl)c3Cl)CC2)CC1)c1ccnc2ccccc12"
quantity = "Ki"
result_value = 5

[[record]]
substance_smiles = "CC(=O)N[C@H]1CC[C@H](CCN2CCC(Oc3ccc(F)cc3Cl)CC2)CC1"
quantity = "Ki"
result_value = 12

[[record]]
substance_smiles = "O=C(N[C@H]1CC[C@H](CCN2CCC(Oc3ccc(F)cc3Cl)CC2)CC1)C1CCOCC1"
quantity = "Ki"
result_value = 17

[[record]]
substance_smiles = "O=C(N[C@H]1CC[C@H](CCN2CCC(Oc3ccncc3)CC2)CC1)c1ccnc2ccccc12"
quantity = "Ki"
result_value = 208

[[record]]
substance_smiles = "CC(=O)N[C@H]1CC[C@H](CCN2CCC(Oc3ccc(F)cc3)CC2)CC1"
quantity = "Ki"
result_value = 50

